Tested on: 786-0 renal
Assay: NCI tumour cell line growth inhibition, 48 h
Field: TGI. Provide a value for each of the compounds that follow.

Can you share its TGI? I mean this compound: CN(C)c1ccc(/C=N/NC(=O)c2cnc3ccccc3c2)cc1
> 100 µM

// next record CC(=O)OC1(C#N)CC2OC1C1NC21 (stereo not drawn)
> 100 µM

Same read-out for NCCNc1ncnc2ccc(Cl)cc12 ?
> 100 µM

Field entry: COc1cc2c3c(n(CCCN4CCN(CCO)CC4)c(=O)c2cc1OC)-c1cc2c(cc1C3=O)OCO2
18 µM

Ok, now Cn1c(=O)c2[nH]cnc2n(C)c1=O.[CH2-]C(Cc1cccc2cc(C(=O)O)c(=O)oc12)OC.[Hg+2].[OH-] (stereo not drawn)
30.2 µM

Then O=Cc1ccc2[nH]c(=O)oc2c1 ?
> 100 µM

Ok, now NNC(=O)CSc1nnc(CCCCCCCCc2nnc(SCC(=O)NN)o2)o1
> 100 µM

What do you have for Nc1nc2c(ncn2CC(CO)CC(c2ccccc2)P(=O)(O)O)c(=O)[nH]1 (stereo not drawn) ?
> 100 µM

Proceed to OCC1(CNc2cc(Cl)ncn2)CCC1
> 100 µM

Follow-up item: O=c1c2cc([N+](=O)[O-])cnc2sn1-c1ccc(Br)cc1
> 100 µM

Subsequent entry: CC(C)(C)c1cc2c(O)c(c1)COCc1cc(C(C)(C)C)cc(c1O)COCc1cc(C(C)(C)C)cc(c1O)COC2
> 100 µM

Then this compound: O=c1ccc2nc3ccc(O)cc3oc-2c1
> 79.6 µM

Query CC1CC/C(=C\c2ccc(F)cc2)C2=C1C(c1ccc(F)cc1)n1c(s/c(=C\c3ccc(Cl)cc3)c1=O)=N2 (stereo not drawn) next
> 100 µM

* * *

Tested on: NCI-H226 lung
Experiment: NCI tumour cell line growth inhibition, 48 h
Recorded endpoint: TGI

Consider the compound Nc1nc(Cl)c2ncn(Cc3ccc(-c4ccc(CCl)cc4)cc3)c2n1 and give its measured TGI.
17.9 µM

Queued: COc1cc(N(CCC#N)CCC#N)ccc1/C(N=Nc1cccc(C)c1)=N\NC(=O)c1ccc(C)cc1
> 100 µM

Subsequent entry: O=C(N/N=C/c1cccc(O)c1)c1ccc(C(F)(F)F)nc1Nc1cccc(C(F)(F)F)c1
3.51 µM

What do you have for NNC(=O)N/N=C1/C(=O)N(c2ccc(Cl)c(Cl)c2)C(=O)C(=O)C1c1nc2ccccc2o1 (stereo not given) ?
> 100 µM

Likewise for O=C1OC(=O)C2C1C1C(c3ccccc3)=C(c3ccccc3)C2(O)C2C(=O)OC(=O)C12 (stereo not given) ?
> 100 µM

* * *

Tested on: SK-MEL-5 melanoma
Test: NCI tumour cell line growth inhibition, 48 h
Where a SMILES comes first, the peptide text is derived from it. [ ]: non-standard residue; d: D form. The star is where a group is joined. ξ: configuration not given here. dIva = CC[C@@](C)(N)C(=O)O; Aib = CC(C)(N)C(=O)O; ξP = O=C(O)C1CCCN1; βAla = NCCC(=O)O; X5 = OCN*
Recorded endpoint: TGI (µM)
// units = µM; emit number, no label

For SK-MEL-5 melanoma, provide TGI of COc1ccc(CNC(=O)c2c(C)n([O-])c3cc(F)c(F)cc3[n+]2=O)cc1 please.
25.3

Try NC(N)=N/N=C/c1ccc(Br)cc1 next.
9.28

Likewise for CCOC(=O)c1c(CN2CCOCC2)n(Cc2ccccc2)c2c1cc(O)c1nc(C)c(C)nc12 ?
57.4

# iterate: Cc1ccc(SSCCCCS(=O)O)cc1
25.6

Could you do the same for Nc1cc(N)c2nc(-c3ccccc3)c(Oc3ccc(Cl)c(Cl)c3)nc2c1 , please?
28.7

Input CC[C@@](C)(NC(=O)[C@H](C)NC(=O)CCNC(=O)C(C)(C)NC(=O)[C@H](C)NC(=O)[C@@H]1CCCN1C(=O)[C@@](C)(CC)NC(=O)[C@H](Cc1ccccc1)NC(=O)C1CCCN1C(=O)C(C)(C)NC(=O)C1CCCN1C(=O)C(C)(C)NC(C)=O)C(=O)NCCC(=O)N[C@@H](CC(C)C)C(=O)NC(C)(C)C(=O)NCCC(=O)N[C@@H](CC(C)C)C(=O)NC(C)(C)C(=O)NC(C)(C)C(=O)N[C@@H](CC(C)C)C(=O)NCCC(=O)NCO (some centres not stated) (Ac-[Aib][ξP][Aib][ξP]F[dIva]PA[Aib][βAla]A[dIva][βAla]L[Aib][βAla]L[Aib][Aib]L[βAla]-X5)
0.302

Entry CN1CCN(Cc2ccc(NC(=O)c3[nH]ncc3Nc3cc(OC4CCCC4)ncn3)cc2)CC1 please
4.07

Next molecule: NC(=S)N=Nc1c(O)[nH]c2ccccc12
651

* * *

System: MOLT-4 leukemia
Assay: NCI tumour cell line growth inhibition, 48 h; in the data active means GI50 below about 0.43 µM; inactive means the rest
Please reply with one of these outcomes: t = active, f = inactive

Answer briefly: the call reported for O=C1/C(=C/c2cccc(F)c2)CN(C(=O)C(Cl)Cl)C/C1=C\c1cccc(F)c1 in this assay.
t

Try the compound CN(C)c1ccc(/C=c2\sc3nnc(Cc4ccccc4)n3c2=O)cc1
f

Now the same for Nc1cc(N)c2nc(-c3ccccc3)c(Oc3ccc(Cl)c(Cl)c3)nc2c1
f

Another compound to check: Nc1nc(Cl)c2ncn(Cc3ccc(-c4ccc(CCl)cc4)cc3)c2n1
f

Please give the result for CN1CCN(Cc2ccc(NC(=O)c3cncc(C#Cc4ncc5ccccn45)c3)cc2C(F)(F)F)CC1 too.
f

Try this compound next: CN1CCN(Cc2ccc(NC(=O)c3[nH]ncc3Nc3cc(OC4CCCC4)ncn3)cc2)CC1
f

Now try O=C1C=C(OCC=C(Cl)Cl)C(=O)c2ccccc21 .
f

Subsequent entry: Nc1nc(N)c(-c2ccc(Cl)cc2)c(/C=C/c2ccc([N+](=O)[O-])cc2)n1
f

// query: COc1ccc(CNC(=O)c2c(C)n([O-])c3cc(F)c(F)cc3[n+]2=O)cc1
f

Param item: CC(CNc1nc(Nc2ccc(Cl)c(Cl)c2)nc(C(Cl)(Cl)Cl)n1)N(C)C (configuration not stated)
f

Again, but for NS(=O)(=O)c1ccc(N=Nc2c(=O)[nH]c3ccc4[nH]cccc4c23)cc1
f

What would you report for COc1cc[nH]c1/C=C1\C(=O)Nc2ccc([N+](=O)[O-])c(N3CC[C@@H](O)C3)c21 ?
t

* * *

System: ACHN renal
Test: NCI tumour cell line growth inhibition, 48 h
Recorded endpoint: GI50

Given the entry CN(C)c1ccc(/C=c2\sc3nnc(Cc4ccccc4)n3c2=O)cc1 , report its measured GI50.
> 10000 nM

Next up: CC(CNc1nc(Nc2ccc(Cl)c(Cl)c2)nc(C(Cl)(Cl)Cl)n1)N(C)C (centres undefined)
1560 nM

What would you report for CN1CCN(Cc2ccc(NC(=O)c3[nH]ncc3Nc3cc(OC4CCCC4)ncn3)cc2)CC1 ?
1090 nM

Query CC(=O)N1c2ccc(-c3ccc(C(=O)O)cc3)cc2[C@H](Nc2ccc(Cl)cc2)C[C@@H]1C next
410 nM

How about this compound: COc1ccc2c(c1)NC(=O)CN2c1nc(C)nc2ccccc12
0.926 nM

What about COC(=O)C1=C(O)C(C(=O)OC)[C@@]2(O)[C@@H](C(=O)OC)C(c3ccccc3Cl)C[C@@H]1[C@@H]2C(=O)OC (some centres undefined) ?
5960 nM

Further, for CN1CCN(Cc2ccc(NC(=O)c3cncc(C#Cc4ncc5ccccn45)c3)cc2C(F)(F)F)CC1 ?
967 nM

Next up: CNCC1CCn2c(c(C3=C(c4cn(C)c5ccccc45)C(=O)NC3=O)c3ccccc32)C1 (centres undefined)
3620 nM

What about CC(=O)Nc1nc(C)c(-c2cc3c(c(S(C)(=O)=O)c2)C(=O)N([C@@H](C)C2CC2)C3)s1 ?
28300 nM

* * *

System: T-47D breast
Assay: NCI tumour cell line growth inhibition, 48 h
Exercise: state measured TGI for each of the compounds provided.

Lab request: please report TGI under test system T-47D breast for CC(C)CC1NC(=O)C(C(C)C)NC(=O)CC(C)COC(=O)C(CC(C)C)N(C)C(=O)C(C(C)C)NC(=O)C(C(C)C)OC1=O (stereo not given)
> 50 µM

Moving on to CC(=O)O[C@@H]1CN(S(=O)(=O)c2ccc(C)cc2)C[C@@H]1C1CCCCC1
> 100 µM

Item: Cc1ccc(C)c(C(=N)c2ccccc2Cc2ccccc2)c1
80.6 µM

Record: CN1C(=O)C(O)C[C@@H]1c1ccc(F)cc1 (stereo not given in full)
> 100 µM

Please give the result for O=C1C=C(OCC=C(Cl)Cl)C(=O)c2ccccc21 too.
> 29.6 µM

Another compound to check: Cc1cc2nc3c(C#N)c4c(c(Nc5ccc(Cl)cc5)n3c2cc1C)CCC4
86.3 µM

COC(=O)c1c(OC(C)=O)ccc2c1c1cc3ccccc3c(OC(C)=O)c1n2C , same question.
39.8 µM

Another: CC(=O)c1cccc(NC(=O)/C(=N\NC(=S)NN)C2C(=O)Nc3ccccc3S2=O)c1 (stereo not given)
> 100 µM

Also, Cc1ccc(C(=O)N/N=C(\N=Nc2ccccc2)c2ccc(N(CCC#N)CCC#N)cc2C)cc1 please.
> 100 µM

Here is the next compound: CCC(=O)Oc1ccc(/C=N/NC(N)=S)nc1
> 100 µM
